Target: NaV1.1 (Homo sapiens (Human))
Test: Electrophysiological Assay (EP), patch voltage clamp, NaV1.1
Type: cell-based
Conditions: HEK-293 cells, whole-cell patch clamp, inactivated state; arithmetic mean
Structures can show the parent of a compound that is named as a salt.
# reported IC50; entries follow
recordedMetric: IC50

>>> df
                                   compound                 measuredtarget  recordedmetric  measuredresult
0  CC[C@@H](c1ccccc1)N1CC[C@H](N(C)c2cc(F)c(S(=O)(=O)Nc3cscn3)cc2Cl)C1  NaV1.1 (Homo sapiens (Human))            IC50         > 10 µM
1  Cc1c(O[C@H]2CCN(Cc3ccccc3)C2)cc(F)c(S(=O)(=O)Nc2cscn2)c1F [Example 269, hydrochloride]  NaV1.1 (Homo sapiens (Human))            IC50         > 10 µM
2  C[C@]1(Nc2ccc(S(=O)(=O)Nc3cscn3)cc2Cl)CCN(Cc2ccccc2)C1 [Example 226, formate]  NaV1.1 (Homo sapiens (Human))            IC50         > 10 µM
3  COc1ccccc1CN1CC[C@H](N(C)c2cc(F)c(S(=O)(=O)Nc3cscn3)cc2Cl)C1  NaV1.1 (Homo sapiens (Human))            IC50         > 10 µM
4  CC1(Nc2ccc(S(=O)(=O)Nc3nccs3)cc2Cl)CCN(Cc2ccccc2)C1 (stereo not shown)  NaV1.1 (Homo sapiens (Human))            IC50         > 10 µM
5  CN(c1cc(F)c(S(=O)(=O)Nc2cscn2)cc1Cl)[C@H]1CCN(C2(c3ccccc3)CC2)C1 [Example 259, 2,2,2-trifluoroacetate]  NaV1.1 (Homo sapiens (Human))            IC50         3.52 µM
6  C[C@H]1CN(Cc2ccccc2)C[C@@H]1Nc1ccc(S(=O)(=O)Nc2nccs2)cc1Cl (relative stereo)  NaV1.1 (Homo sapiens (Human))            IC50         1.03 µM

----------
Molecular target: NaV1.1 (Homo sapiens (Human))
Assay: Sodium Influx Assay (Flux), NaV1.1
Type: cell-based
Conditions: Trex HEK293 cells, ANG2 dye; arithmetic mean
pIC50: −log10 of the molar value. Where a name gives a salt, the structure may show the parent alone.
# reported pIC50; entries follow
recordedMetric: pIC50

>>> df
                                   molecule  recordedmetric  measuredresult
0  Cc1cc(S(=O)(=O)Nc2cscn2)c(F)cc1N(C)[C@H]1CCN(Cc2ccnn2CC(F)(F)F)C1           pIC50            4.90
1  CN(c1cc(F)c(S(=O)(=O)Nc2cscn2)cc1Cl)[C@H]1CCN(Cc2c(F)cccc2Cl)C1 [Example 169, 2,2,2-trifluoroacetate]           pIC50            5.34
2  COc1cccc(CN2CC[C@H](N(C)c3cc(F)c(S(=O)(=O)Nc4cscn4)cc3Cl)C2)n1           pIC50            4.53
3  Cc1c(N(C)[C@H]2CCN(Cc3ccccc3F)C2)cc(F)c(S(=O)(=O)Nc2cscn2)c1F [Example 236, formate]           pIC50            4.62
4  O=S(=O)(Nc1nccs1)c1ccc(O[C@@H]2C[C@H]3CC[C@@H](C2)N3Cc2ccccc2)c(Cl)c1           pIC50            4.64
5  Cc1c(NC2(C)CN(Cc3ccccc3)C2)cc(F)c(S(=O)(=O)Nc2cscn2)c1F [Example 233, 2,2,2-trifluoroacetate]           pIC50            5.22
6  CN(c1ccc(S(=O)(=O)Nc2cscn2)cc1Cl)[C@H]1CCN(Cc2ccccc2)C1 [Example 41, 2,2,2-trifluoroacetate]           pIC50            5.18
